Sourced from patent US20230295310A1

measurement.target: T1, cynomolgus monkey CD3 expressed on primary T cells (cynomolgus monkey, UniProt Q95LI5 22-198; Q95LI8 22-171; Q95LI7 23-181)
T1 construct: whole, on cells; CD3 complex on purified cynomolgus monkey T cells; also called cyno CD3
T1 sequence (Q95LI5 22-198, chain 1 of 3): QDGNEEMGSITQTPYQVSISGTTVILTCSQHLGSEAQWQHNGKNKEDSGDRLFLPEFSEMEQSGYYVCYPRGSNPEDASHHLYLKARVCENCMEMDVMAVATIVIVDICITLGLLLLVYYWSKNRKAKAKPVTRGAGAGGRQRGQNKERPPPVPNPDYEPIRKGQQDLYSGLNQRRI
T1 sequence (Q95LI8 22-171, chain 2 of 3): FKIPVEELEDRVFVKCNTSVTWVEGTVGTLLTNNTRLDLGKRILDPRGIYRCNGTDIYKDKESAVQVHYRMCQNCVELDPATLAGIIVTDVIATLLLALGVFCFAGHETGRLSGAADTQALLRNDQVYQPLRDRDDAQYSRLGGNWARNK
T1 sequence (Q95LI7 23-181, chain 3 of 3): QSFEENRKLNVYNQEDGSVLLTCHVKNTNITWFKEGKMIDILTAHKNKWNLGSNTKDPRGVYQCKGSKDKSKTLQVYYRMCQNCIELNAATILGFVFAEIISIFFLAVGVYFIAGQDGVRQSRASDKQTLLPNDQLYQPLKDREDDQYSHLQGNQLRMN
experimental.details: flow cytometry, 25 nM

{"columns": ["binder", "Cyno primary T Cell Binding (FOI)"],
 "data": [
  ["mAb 121 (antibody, V domains shown) VH: EVQLVESGGGLVQPGRSLRLSCATSGFTFADYTMHWVRQAPGKGLEWVSGISWNSGSIDYADSVKGRFTISRDNAKKSLYLQMNSLRAEDTALYFCAKDSSGYGHYYFYYLDVWGKGTTVTVSS VL: EIVMTQSPGTLSVSPGKRATLSCRASQSVSSNLAWYQQKPGQGPRLLIYSTSTRATGIPARFSGSGSGTEFTLTISSLQSEDSAVYYCQHYNNWPHFGQGTRLEIK", 12.2],
  ["mAb 69 (antibody, V domains shown) VH: QMLLVESGGGVVQPGRSLTLSCAASGFTFRSYGMHWVRQAPGRGLEWVAIIWYDGSTEYYADSVKGRFTISRANSKNMLYLQMNSLRAEDTAVYYCAAFDYTNSFDIWGQGTMVTVSS VL: DIVVTQTPLSSPVTLGQPASISCRSSQRFVHSDGNTYLSWLQQRPGQPPRLLIYKISNRISGVPDRFSGSGAGTDFKLKISRVEAEDVGIYYCMQATQFPYTFGQGTKLEIK", 245],
  ["mAb 78 (antibody, V domains shown) VH: EVQLVESGGGLVQPGGSLRLSCAASGFTFSSYWMSWVRQAPGKGLEWVANIKQDGSEKYYVDSVKGRFTISRDNAKNSLYLQMNSLRAEDTAVYYCARDNSPSFYWYFDLWGRGTLVTVSS VL: DIQMTQSPSTLSASVGDRVTITCRASQSLSRWLAWYQQKPGKAPKLLIYKASSLESGVPSRFSGSGSGTEFTLTISSLQPDDFATYYCQQYYTYSRTFGQGTKVEIK", 41.6],
  ["mAb 158 (antibody, V domains shown) VH: EVQLVESGGGLVQPGRSLRLSCAASGFTFADYTMHWVRQVPGKGLEWVSGISWNSGSVDYADSVKGRFTISRDNAKKTLYLQMNSLRAEDTALYYCAKDSSGYGHYYFYYLDVWGKGTTVTVSS VL: EIVMTQSPATLSVSPGERATLSCRATQSVSSNLAWYQQKPGQAPRLLIYSTSTRATGIPARFSGSRSGTEFTLTISSLQSEDSAVYYCQQYNNWPHFGQGTRLEIK", 10.9]
]}
